B1: TRIM43 (parent)
chain: RAQMIRNEYRKLHPVLHKEEKQHL

# Variants of: B1
# Method: protein stability index of a GFP-peptide fusion (GPS, HEK-293T) (PSI 1-6); higher = more stable;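 note: lentivirally expressed fusions sorted by FACS into six bins by GFP to DsRed ratio, PSI derived from sequencing read proportions per bin multiplied by bin number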
# Details: c terminus: a fixed tail appended

| Sequence Variant | protein stability index |
| --- | --- |
| H17N | 3.28 |
| M4S | 3.07 |
| Q3E | 3.48 |
| H17T | 3.2 |
| A2G | 3.61 |
| Q22N | 3.07 |
| R10T | 3.85 |
| E20A | 2.32 |
| I5W | 2.87 |
| H13L | 3.28 |
| M4L | 3.2 |
| R10F | 3.4 |
| E20C | 2.57 |
| H17Y | 2.96 |
| E8D | 3.21 |
| I5V | 3.15 |
| L12R | 3.94 |
| E19L | 2.07 |
| E20R | 1.83 |
| N7H | 3.28 |
| E20S | 2.85 |
| M4V | 3.39 |
